System Name: T1, recombinant human endotrophin (77 amino acids at the carboxy-terminal of the COL6α3 chain, HEK293-expressed, … (human, UniProt P12111 3101-3177))
T1 construct: the His-tag was removed by enterokinase, leaving the 77 amino acid endotrophin free of tags; also called ETP; recombinant endotrophin protein
T1 sequence (P12111 3101-3177 limits assumed): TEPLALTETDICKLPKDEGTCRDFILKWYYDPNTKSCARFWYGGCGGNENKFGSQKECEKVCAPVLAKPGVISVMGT
Method: ELISA titration, plate coated with recombinant endotrophin, serially diluted antibody, HRP secondary antibody, OD450
Here the recorded EC50 (read off the curve) is given for each entry.

{"Binder": "ETP-mAb11 (antibody, V domains shown, Rabbit monoclonal) VH: QSVKESEGGLVQPEGSLTLTCTASGFSFSSSYYMCWVRQAPGKGLEWIGCIYLGNNENTAYTSWAKGRFTISKTSSTTVTLQMTSLTAADTTTYFCARDTSGGSDYYFGLWGPGTLVTISS VL: ELDLTQTPASVEVAVGGTVTIKCQASHRIKTYLAWYQQKPGQPPKLLIYGASTLASGVPSRFKGSGSGTQFTLTISGVECADAATYYCQQGYSDGNVDNVFGGGTEVEIK", "EC50 (read off the curve)": "~0.4 µg/mL"}
{"Binder": "ETP-mAb6 (antibody, V domains shown, Rabbit monoclonal) VH: QSVKESEGGLVQPEGSLTLTCTASGFSFSNSDYMCWVRQAPGKGLEWIGWIDLVGNTNSYYASWAKGRFTISKTSSTTVALQMTSLTVADTATYFCARDLGFDTNLWGPGTLVTVSS VL: ELDLTQTPASVSAAVGGTVTINCQASQNINSWLSWYQQKPGQRPKLLIYQASKLPSGVPSRFKGSGSGTQFTLTISDLECADAATYYCQSHDYRTTGSYGNVFGGGTEVEIK", "EC50 (read off the curve)": "~0.06 µg/mL"}
{"Binder": "ETP-mAb4 (antibody, V domains shown, Rabbit monoclonal; also called parental rabbit ETPmAb4) VH: SSRVKESGGDLVKPGASLTLTCKASGFSFSSGYYICWVRQAPGKGLEWIACIYGGNNNPYYANWVNGRFTTSKTSSTTVTLQMTNLTGADTATYFCARKDINIGGAYELWGPGTLVTISS VL: ELVMTQTPASVSEPVGGTVTINCQASQSISSSYLSWYQQKPGQPPKLLIYKASTLASGVPSRFKGSGSGTQFSLTISDLECADAATYYCQYSDWANSYGNAFGGGTEVVVK", "EC50 (read off the curve)": "~0.06 µg/mL"}
{"Binder": "ETP-mAb2 (antibody, V domains shown, Rabbit monoclonal) VH: EQSLEESEGGLVQPEGSLTLTCTASGFSFSRSDYMCWVRQAPGKGLEWIGWIDPGYSDTYYASWAQGRTTISKASSTTVTLQMTSLTVADTATYFCARDLGFDSNLWGPGTLVTISS VL: ELDLTQTPASVSEPVGGTVTIKCQASQSINSYLSWYQQKPGQPPKLLIYQASKLASGVPSRFKGSGSGTQFTLTISDLECADAATYYCQSYDYRISGSDGNVFGGGTNVEIK", "EC50 (read off the curve)": "~0.1 µg/mL"}
{"Binder": "ETP-mAb72 (antibody, V domains shown, Rabbit monoclonal) VH: QSLEESGGGLVQPEGSLTLTCTASGFSFSRGDYVCWVRQAPGKGLEWIGWIDVGSVIESYYATWAKGRFTISKTSSTTVTLQMTSLTVADTATYFCARDLGFDTNLWGPGTLVTVSS VL: ELVMTQTPASVEAAVGGTVTINCQASESISIYLNWYQQKPGQPPKLLIYQASKLASGVPSRFKGSGSGTEFTLTISDLECADAATYYCQSHDYRIGRSDCNVFGGGTNVEIK", "EC50 (read off the curve)": "~0.3 µg/mL"}
{"Binder": "ETP-mAb10 (antibody, V domains shown, Rabbit monoclonal) VH: QSLEESGGGLVQPEGSLTLTCTASGFSFSRGDYMCWVRQAPGKGLEWIGWIDVGRDNDSYYATWAKGRFSISKTSSTTVTLQMTSLTVADTATYFCARDLGFDTNLWGPGTLVTVSS VL: ELDMTQTPASVSAAVGGTVTINCQASQNINSWLSWYQQKPGQPPKLLIYQASKLASGVPSRLKGSGSGTQFSLTISDLECADGATYYCQSYDYRSSGNGGNVFGGGTEVEIK", "EC50 (read off the curve)": "~0.1 µg/mL"}
{"Binder": "ETP-mAb1 (antibody, V domains shown, Rabbit monoclonal) VH: QSVKESGGDLVKPGASLTLTCTASGIDFSAGYYMCWVRQAPGKGLELIACIYAGRSLNTFYASWAKGRFTISRASSTTVTLAMTSLTAADTATYFCARDGASSGYYFKLWGPGTLVTISS VL: ELDMTQTPASVEVAVGGTVTIKCQASQSIGSNLAWYQQKPGQRPNVLIYDASNLASGVSSRFKGSGSGTQFTLTISGGECADAATYYCQQGYSDNYLDNAFGGGTEVVVK", "EC50 (read off the curve)": "~0.02 µg/mL"}

Measured values drawn from patent US20220056124A1 for this set.
